Exercise: state measured pIC50 for each of the compounds provided.
target: JAK2 (a.a. 828-1132) (Homo sapiens, UniProt O60674); construct: JAK2 (a.a. 828-1132); His tag (N); experiment: In vitro JAK kinase assay (HTRF, phosphorylation of biotinylated peptide), JAK2; type: biochemical; details: Table F; 1 mM ATP
Sequence (O60674 828-1132): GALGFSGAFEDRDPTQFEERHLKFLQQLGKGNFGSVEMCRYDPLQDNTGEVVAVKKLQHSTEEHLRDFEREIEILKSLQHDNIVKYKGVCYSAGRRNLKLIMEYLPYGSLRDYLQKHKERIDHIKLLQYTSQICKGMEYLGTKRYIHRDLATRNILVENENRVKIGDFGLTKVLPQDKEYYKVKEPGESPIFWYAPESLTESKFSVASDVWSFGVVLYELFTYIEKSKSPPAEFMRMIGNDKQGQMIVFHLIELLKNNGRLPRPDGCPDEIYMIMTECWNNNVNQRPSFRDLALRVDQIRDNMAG
pIC50: −log10 of the molar value.

*Q* Write down the reported pIC50 of "N#CC[C@]1(n2cc(-c3ncnc4[nH]ccc34)cn2)C[C@H](N2CCC(Oc3cc(CN4CC(O)C4)cc(C(F)(F)F)n3)CC2)C1" , test system: JAK2 (a.a. 828-1132) (Homo sapiens, UniProt O60674).
*A* 7.00 to 7.60

*Q* Write down the reported pIC50 of "CCNCc1cc(C(=O)N2CCN([C@H]3C[C@](CC#N)(n4cc(-c5ncnc6[nH]ccc56)cn4)C3)CC2)nc(C(F)(F)F)n1" , test system: JAK2 (a.a. 828-1132) (Homo sapiens, UniProt O60674).
*A* 7.00 to 7.60

*Q* Write down the reported pIC50 of "N#CC[C@]1(n2cc(-c3ncnc4[nH]ccc34)cn2)C[C@@H](N2CCN(C(=O)NC3CCC3)CC2)C1" , test system: JAK2 (a.a. 828-1132) (Homo sapiens, UniProt O60674).
*A* < 7.00

*Q* Write down the reported pIC50 of "N#CC[C@]1(n2cc(-c3ncnc4[nH]ccc34)cn2)C[C@H](N2CCN(C(=O)NC3CCC3)CC2)C1" , test system: JAK2 (a.a. 828-1132) (Homo sapiens, UniProt O60674).
*A* 7.00 to 7.60

*Q* Write down the reported pIC50 of "CC(C)(C)NCc1cc(OC2CCN([C@H]3C[C@@](CC#N)(n4cc(-c5ncnc6[nH]ccc56)cn4)C3)CC2)nc(C(F)(F)F)c1" , test system: JAK2 (a.a. 828-1132) (Homo sapiens, UniProt O60674).
*A* < 7.00

*Q* Write down the reported pIC50 of "N#CC[C@]1(n2cc(-c3ncnc4[nH]ccc34)cn2)C[C@H](N2CCC(Oc3cc(CN4CCC[C@@H]4CO)cc(C(F)(F)F)n3)CC2)C1" , test system: JAK2 (a.a. 828-1132) (Homo sapiens, UniProt O60674).
*A* < 7.00

*Q* Write down the reported pIC50 of "CN(C)Cc1cc(OC2CCN([C@H]3C[C@](CC#N)(n4cc(-c5ncnc6[nH]ccc56)cn4)C3)CC2)cc(C(F)F)c1" , test system: JAK2 (a.a. 828-1132) (Homo sapiens, UniProt O60674).
*A* < 7.00

*Q* Write down the reported pIC50 of "CN(C)Cc1cc(C#N)cc(CN2CCN([C@H]3C[C@@](CC#N)(n4cc(-c5ncnc6[nH]ccc56)cn4)C3)CC2)c1" , test system: JAK2 (a.a. 828-1132) (Homo sapiens, UniProt O60674).
*A* < 7.00

*Q* Write down the reported pIC50 of "N#CC[C@]1(n2cc(-c3ncnc4[nH]ccc34)cn2)C[C@H](N2CCN(C(=O)c3cc(CN)nc(C(F)(F)F)n3)CC2)C1" , test system: JAK2 (a.a. 828-1132) (Homo sapiens, UniProt O60674).
*A* 7.00 to 7.60

*Q* Write down the reported pIC50 of "N#CC[C@]1(n2cc(-c3ncnc4[nH]ccc34)cn2)C[C@H](N2CCN(C(=O)c3cc(CN4CCCC4)nc(C(F)(F)F)n3)CC2)C1" , test system: JAK2 (a.a. 828-1132) (Homo sapiens, UniProt O60674).
*A* 7.00 to 7.60

*Q* Write down the reported pIC50 of N#CC[C@]1(n2cc(-c3ncnc4[nH]ccc34)cn2)C[C@H](N2CCC(Oc3cc(CO)cc(C(F)(F)F)n3)CC2)C1 (single isomer, unassigned) , test system: JAK2 (a.a. 828-1132) (Homo sapiens, UniProt O60674).
*A* < 7.00

*Q* Write down the reported pIC50 of "CCCN(C)C(=O)N1CCN([C@H]2C[C@](CC#N)(n3cc(-c4ncnc5[nH]ccc45)cn3)C2)CC1" , test system: JAK2 (a.a. 828-1132) (Homo sapiens, UniProt O60674).
*A* 7.00 to 7.60

*Q* Write down the reported pIC50 of "N#CC[C@]1(n2cc(-c3ncnc4[nH]ccc34)cn2)C[C@H](N2CCC(Oc3cc(CN4CC(O)C4)nc(C(F)(F)F)n3)CC2)C1" , test system: JAK2 (a.a. 828-1132) (Homo sapiens, UniProt O60674).
*A* < 7.00

*Q* Write down the reported pIC50 of "CN(C)C1(c2cc(C(=O)N3CCN([C@H]4C[C@@](CC#N)(n5cc(-c6ncnc7[nH]ccc67)cn5)C4)CC3)nc(C(F)(F)F)n2)CCC1" , test system: JAK2 (a.a. 828-1132) (Homo sapiens, UniProt O60674).
*A* 7.00 to 7.60

*Q* Write down the reported pIC50 of "N#CC[C@]1(n2cc(-c3ncnc4[nH]ccc34)cn2)C[C@H](N2CCN(C(=O)NC3CC3)CC2)C1" , test system: JAK2 (a.a. 828-1132) (Homo sapiens, UniProt O60674).
*A* < 7.00

*Q* Write down the reported pIC50 of COCc1cc(OC2CCN([C@H]3C[C@@](CC#N)(n4cc(-c5ncnc6[nH]ccc56)cn4)C3)CC2)nc(C(F)(F)F)c1 (single isomer, unassigned) , test system: JAK2 (a.a. 828-1132) (Homo sapiens, UniProt O60674).
*A* < 7.00

*Q* Write down the reported pIC50 of "N#CC[C@]1(n2cc(-c3ncnc4[nH]ccc34)cn2)C[C@@H](N2CCN(C(=O)NC3CCCC3)CC2)C1" , test system: JAK2 (a.a. 828-1132) (Homo sapiens, UniProt O60674).
*A* 7.00 to 7.60

*Q* Write down the reported pIC50 of "CC(C)(C)NCc1cc(OC2CCN([C@H]3C[C@](CC#N)(n4cc(-c5ncnc6[nH]ccc56)cn4)C3)CC2)nc(C(F)(F)F)c1" , test system: JAK2 (a.a. 828-1132) (Homo sapiens, UniProt O60674).
*A* 7.00 to 7.60

*Q* Write down the reported pIC50 of "CNCc1cc(OC2CCN([C@H]3C[C@](CC#N)(n4cc(-c5ncnc6[nH]ccc56)cn4)C3)CC2)nc(C(F)(F)F)c1" , test system: JAK2 (a.a. 828-1132) (Homo sapiens, UniProt O60674).
*A* 7.00 to 7.60

*Q* Write down the reported pIC50 of CC(C)(O)c1cc(OC2CCN([C@H]3C[C@](CC#N)(n4cc(-c5ncnc6[nH]ccc56)cn4)C3)CC2)nc(C(F)(F)F)c1 (single isomer, unassigned) , test system: JAK2 (a.a. 828-1132) (Homo sapiens, UniProt O60674).
*A* 7.00 to 7.60

*Q* Write down the reported pIC50 of "N#CC[C@]1(n2cc(-c3ncnc4[nH]ccc34)cn2)C[C@H](N2CCC(Oc3cc(CN4CCCC4)nc(C(F)(F)F)n3)CC2)C1" , test system: JAK2 (a.a. 828-1132) (Homo sapiens, UniProt O60674).
*A* < 7.00

*Q* Write down the reported pIC50 of "N#CC[C@]1(n2cc(-c3ncnc4[nH]ccc34)cn2)C[C@@H](N2CCN(C(=O)NC3CC3)CC2)C1" , test system: JAK2 (a.a. 828-1132) (Homo sapiens, UniProt O60674).
*A* < 7.00

*Q* Write down the reported pIC50 of "CN(C)Cc1cc(C#N)cc(C(=O)N2CCN([C@H]3C[C@@](CC#N)(n4cc(-c5ncnc6[nH]ccc56)cn4)C3)CC2)c1" , test system: JAK2 (a.a. 828-1132) (Homo sapiens, UniProt O60674).
*A* < 7.00

*Q* Write down the reported pIC50 of "CCNC(=O)N1CCN([C@H]2C[C@](CC#N)(n3cc(-c4ncnc5[nH]ccc45)cn3)C2)CC1" , test system: JAK2 (a.a. 828-1132) (Homo sapiens, UniProt O60674).
*A* 7.00 to 7.60

*Q* Write down the reported pIC50 of "CC(C)NCc1cc(C(=O)N2CCN([C@H]3C[C@](CC#N)(n4cc(-c5ncnc6[nH]ccc56)cn4)C3)CC2)nc(C(F)(F)F)n1" , test system: JAK2 (a.a. 828-1132) (Homo sapiens, UniProt O60674).
*A* 7.00 to 7.60
